- assay system: mPIEZO1 (Mus musculus, UniProt E2JF22)
- Sequence (E2JF22 whole entry): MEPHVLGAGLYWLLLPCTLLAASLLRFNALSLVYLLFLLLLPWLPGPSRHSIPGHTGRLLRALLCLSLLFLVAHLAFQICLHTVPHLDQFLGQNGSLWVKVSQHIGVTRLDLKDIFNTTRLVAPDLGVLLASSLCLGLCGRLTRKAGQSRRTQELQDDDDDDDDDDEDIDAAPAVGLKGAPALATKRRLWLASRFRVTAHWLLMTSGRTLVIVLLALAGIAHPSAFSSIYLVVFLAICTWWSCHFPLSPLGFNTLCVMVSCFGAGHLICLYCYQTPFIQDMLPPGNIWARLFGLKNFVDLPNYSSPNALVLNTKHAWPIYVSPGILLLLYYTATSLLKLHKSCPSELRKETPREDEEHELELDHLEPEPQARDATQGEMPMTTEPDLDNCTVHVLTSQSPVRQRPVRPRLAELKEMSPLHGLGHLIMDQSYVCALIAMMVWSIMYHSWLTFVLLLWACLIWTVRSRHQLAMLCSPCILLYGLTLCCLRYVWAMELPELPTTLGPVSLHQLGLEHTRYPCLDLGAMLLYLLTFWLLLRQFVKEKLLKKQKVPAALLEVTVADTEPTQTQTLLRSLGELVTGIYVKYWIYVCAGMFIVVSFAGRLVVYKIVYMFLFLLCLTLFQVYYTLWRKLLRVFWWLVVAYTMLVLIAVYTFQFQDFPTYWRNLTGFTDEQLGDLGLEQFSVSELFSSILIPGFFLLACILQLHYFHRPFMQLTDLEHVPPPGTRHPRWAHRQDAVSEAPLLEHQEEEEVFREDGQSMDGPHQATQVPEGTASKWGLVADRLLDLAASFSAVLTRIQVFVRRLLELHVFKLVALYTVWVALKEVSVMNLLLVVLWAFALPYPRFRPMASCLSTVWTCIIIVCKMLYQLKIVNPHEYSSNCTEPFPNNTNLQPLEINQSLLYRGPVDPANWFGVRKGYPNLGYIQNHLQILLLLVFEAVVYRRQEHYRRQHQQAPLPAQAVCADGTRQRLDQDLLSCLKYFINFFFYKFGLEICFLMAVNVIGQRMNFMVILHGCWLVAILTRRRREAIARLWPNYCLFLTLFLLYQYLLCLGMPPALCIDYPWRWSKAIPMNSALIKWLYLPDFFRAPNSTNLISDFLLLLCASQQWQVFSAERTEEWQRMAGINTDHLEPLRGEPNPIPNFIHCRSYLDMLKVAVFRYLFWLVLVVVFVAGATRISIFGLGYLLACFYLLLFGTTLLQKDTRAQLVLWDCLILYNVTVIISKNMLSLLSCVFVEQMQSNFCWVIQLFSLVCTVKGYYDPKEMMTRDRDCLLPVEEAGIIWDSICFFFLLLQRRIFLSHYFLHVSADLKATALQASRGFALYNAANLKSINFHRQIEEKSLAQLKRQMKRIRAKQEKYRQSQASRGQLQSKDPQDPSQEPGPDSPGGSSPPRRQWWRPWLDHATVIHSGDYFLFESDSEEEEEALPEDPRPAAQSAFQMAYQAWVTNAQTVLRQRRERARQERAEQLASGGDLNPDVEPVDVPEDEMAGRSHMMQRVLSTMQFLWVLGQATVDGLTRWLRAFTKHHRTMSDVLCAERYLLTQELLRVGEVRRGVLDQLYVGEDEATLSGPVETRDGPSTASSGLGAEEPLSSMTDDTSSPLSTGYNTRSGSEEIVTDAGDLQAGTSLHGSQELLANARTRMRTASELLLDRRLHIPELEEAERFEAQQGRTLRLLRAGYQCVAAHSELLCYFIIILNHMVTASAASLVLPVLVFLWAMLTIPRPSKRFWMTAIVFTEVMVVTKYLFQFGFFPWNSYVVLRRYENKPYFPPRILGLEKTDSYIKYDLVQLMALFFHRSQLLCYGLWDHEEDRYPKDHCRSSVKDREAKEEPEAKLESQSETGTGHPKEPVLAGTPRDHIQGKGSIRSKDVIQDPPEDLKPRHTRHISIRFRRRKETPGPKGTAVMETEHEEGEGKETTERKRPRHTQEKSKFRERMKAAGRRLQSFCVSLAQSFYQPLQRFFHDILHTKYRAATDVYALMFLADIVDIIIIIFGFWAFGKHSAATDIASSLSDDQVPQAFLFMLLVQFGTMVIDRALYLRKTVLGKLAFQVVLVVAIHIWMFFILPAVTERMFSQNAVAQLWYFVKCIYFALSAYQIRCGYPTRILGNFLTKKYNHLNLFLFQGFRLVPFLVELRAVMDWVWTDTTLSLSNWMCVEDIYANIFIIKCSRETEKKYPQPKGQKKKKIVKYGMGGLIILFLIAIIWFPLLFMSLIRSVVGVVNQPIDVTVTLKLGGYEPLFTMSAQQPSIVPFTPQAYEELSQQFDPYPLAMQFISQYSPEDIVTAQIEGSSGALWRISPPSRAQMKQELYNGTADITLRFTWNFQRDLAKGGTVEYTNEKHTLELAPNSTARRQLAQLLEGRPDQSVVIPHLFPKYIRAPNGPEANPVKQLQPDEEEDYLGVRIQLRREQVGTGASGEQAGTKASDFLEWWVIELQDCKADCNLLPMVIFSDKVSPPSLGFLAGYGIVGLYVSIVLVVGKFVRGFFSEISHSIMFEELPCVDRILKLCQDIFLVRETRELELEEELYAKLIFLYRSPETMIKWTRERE
- assay text: FLIPR GCaMP6s Ca2+ assay
measure name: pEC50
By convention, pEC50 is the negative base-10 log of a molar concentration.

query: Fill: pEC50 (mPIEZO1 (Mus musculus, UniProt E2JF22)) for this compound Clc1cccc(Cl)c1CSc1nnc(-c2cnccn2)s1
result: 5.37

----------
- assay system: mPIEZO1 (Mus musculus, UniProt E2JF22, L329P)
- Sequence (E2JF22 whole entry L329P): as the sequence (E2JF22 whole entry) above, with L329P counted along it
- assay text: FLIPR GCaMP6s Ca2+ assay
measure name: EC50

query: Read off the recorded EC50 for Clc1cccc(Cl)c1CSc1nnc(-c2cnccn2)s1
result: 1300 nM

----------
- assay system: hPIEZO1 (Homo sapiens, UniProt Q92508)
- Sequence (Q92508 whole entry): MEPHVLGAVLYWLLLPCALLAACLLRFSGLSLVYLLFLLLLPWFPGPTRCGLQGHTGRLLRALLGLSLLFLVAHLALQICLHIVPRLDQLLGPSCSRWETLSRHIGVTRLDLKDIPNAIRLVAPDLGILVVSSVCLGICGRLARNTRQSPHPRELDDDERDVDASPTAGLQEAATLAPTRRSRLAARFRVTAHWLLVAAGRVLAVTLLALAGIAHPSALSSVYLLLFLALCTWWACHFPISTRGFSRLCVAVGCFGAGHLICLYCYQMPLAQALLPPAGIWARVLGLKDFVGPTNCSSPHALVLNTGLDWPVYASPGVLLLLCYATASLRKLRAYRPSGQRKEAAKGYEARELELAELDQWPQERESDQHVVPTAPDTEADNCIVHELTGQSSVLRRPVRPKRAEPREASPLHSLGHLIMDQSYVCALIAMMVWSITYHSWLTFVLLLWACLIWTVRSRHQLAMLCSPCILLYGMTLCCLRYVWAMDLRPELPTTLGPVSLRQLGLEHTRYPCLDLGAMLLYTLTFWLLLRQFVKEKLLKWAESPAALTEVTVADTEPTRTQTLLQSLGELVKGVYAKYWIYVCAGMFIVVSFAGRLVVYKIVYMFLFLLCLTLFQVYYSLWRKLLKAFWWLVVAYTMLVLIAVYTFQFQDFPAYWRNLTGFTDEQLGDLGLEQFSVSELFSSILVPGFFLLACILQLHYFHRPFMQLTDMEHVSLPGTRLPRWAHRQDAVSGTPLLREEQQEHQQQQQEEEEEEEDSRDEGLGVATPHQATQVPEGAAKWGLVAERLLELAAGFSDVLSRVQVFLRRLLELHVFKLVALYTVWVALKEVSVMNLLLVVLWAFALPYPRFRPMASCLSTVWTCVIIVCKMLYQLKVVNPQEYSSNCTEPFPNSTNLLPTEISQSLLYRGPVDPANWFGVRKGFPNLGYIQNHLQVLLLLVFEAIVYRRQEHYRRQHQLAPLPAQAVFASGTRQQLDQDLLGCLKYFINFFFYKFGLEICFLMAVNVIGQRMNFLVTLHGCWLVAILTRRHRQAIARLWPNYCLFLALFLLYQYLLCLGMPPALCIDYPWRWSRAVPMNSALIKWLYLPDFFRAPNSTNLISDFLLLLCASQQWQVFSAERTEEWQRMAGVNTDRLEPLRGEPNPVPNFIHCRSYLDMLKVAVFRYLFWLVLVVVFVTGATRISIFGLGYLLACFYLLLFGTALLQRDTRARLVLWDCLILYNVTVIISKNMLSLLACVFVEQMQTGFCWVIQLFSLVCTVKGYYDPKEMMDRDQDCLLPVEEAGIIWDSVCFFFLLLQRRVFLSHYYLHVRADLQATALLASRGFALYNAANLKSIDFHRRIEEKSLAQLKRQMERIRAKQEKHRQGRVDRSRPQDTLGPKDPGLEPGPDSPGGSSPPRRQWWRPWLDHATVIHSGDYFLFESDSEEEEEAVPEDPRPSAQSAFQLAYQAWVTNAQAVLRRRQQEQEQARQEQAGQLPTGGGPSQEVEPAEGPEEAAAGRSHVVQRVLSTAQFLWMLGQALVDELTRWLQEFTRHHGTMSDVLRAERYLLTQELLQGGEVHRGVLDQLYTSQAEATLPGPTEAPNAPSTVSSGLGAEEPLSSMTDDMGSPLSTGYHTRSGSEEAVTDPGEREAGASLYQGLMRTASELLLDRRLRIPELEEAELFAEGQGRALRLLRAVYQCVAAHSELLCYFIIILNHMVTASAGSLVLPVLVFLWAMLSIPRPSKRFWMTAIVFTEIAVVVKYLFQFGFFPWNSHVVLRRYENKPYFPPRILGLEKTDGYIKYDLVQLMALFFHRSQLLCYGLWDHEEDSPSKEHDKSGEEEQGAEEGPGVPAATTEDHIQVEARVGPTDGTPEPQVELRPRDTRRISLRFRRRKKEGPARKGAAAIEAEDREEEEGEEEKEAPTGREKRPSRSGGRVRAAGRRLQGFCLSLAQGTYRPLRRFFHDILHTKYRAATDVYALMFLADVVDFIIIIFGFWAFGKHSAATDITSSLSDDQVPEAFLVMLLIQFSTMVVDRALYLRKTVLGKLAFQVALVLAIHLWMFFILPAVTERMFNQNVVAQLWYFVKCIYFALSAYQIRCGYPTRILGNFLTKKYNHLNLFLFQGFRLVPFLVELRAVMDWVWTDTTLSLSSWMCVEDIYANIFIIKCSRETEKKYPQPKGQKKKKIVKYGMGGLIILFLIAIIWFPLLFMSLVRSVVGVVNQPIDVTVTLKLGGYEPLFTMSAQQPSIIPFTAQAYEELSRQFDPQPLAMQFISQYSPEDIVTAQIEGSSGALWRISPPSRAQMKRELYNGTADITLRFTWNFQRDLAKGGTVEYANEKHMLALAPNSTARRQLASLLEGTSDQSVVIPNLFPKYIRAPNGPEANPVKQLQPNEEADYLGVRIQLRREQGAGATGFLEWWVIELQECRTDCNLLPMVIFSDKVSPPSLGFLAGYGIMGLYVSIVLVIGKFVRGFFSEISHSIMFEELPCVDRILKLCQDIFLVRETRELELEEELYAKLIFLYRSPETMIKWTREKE
- assay text: FLIPR GCaMP6s Ca2+ assay
measure name: pEC50
By convention, pEC50 is the negative base-10 log of a molar concentration.

query: Fill: pEC50 (hPIEZO1 (Homo sapiens, UniProt Q92508)) for this compound Clc1cccc(Cl)c1CSc1nnc(-c2cnccn2)s1
result: 5.04
